- Tested on: Diabrotica virgifera virgifera Leconte, 2nd instar western corn rootworm (WCR)
- PROTOCOL: Western corn rootworm (WCR) soil test
- Assay type: in vivo
RESULT TYPE: WCR (50 ppm) rating

> print(dat)
                                   compound                             target.entity          result.type          measurement
1  COC(=O)CSC(C[N+](=O)[O-])c1ccc(OC)cc1 (stereo not shown)  Diabrotica virgifera virgifera Leconte, 2nd instar western corn rootworm (WCR)  WCR (50 ppm) rating  4 (4 = 46-55% kill)
2  O=C(O)CSC(C[N+](=O)[O-])c1ccccc1F (stereo not shown)  Diabrotica virgifera virgifera Leconte, 2nd instar western corn rootworm (WCR)  WCR (50 ppm) rating    9 (9 = 100% kill)
3  CCCOC(=O)CSC(C[N+](=O)[O-])c1cccs1 (stereo not shown)  Diabrotica virgifera virgifera Leconte, 2nd instar western corn rootworm (WCR)  WCR (50 ppm) rating                    0

--- query ---
Prompt line: Write down the reported WCR (50 ppm) rating of O=[N+]([O-])CC(SCc1ccccc1)c1ccco1 (stereo not shown) , test system: Diabrotica virgifera virgifera Leconte, 2nd instar western corn rootworm (WCR).
Response line: 8 (8 = 86-99% kill)

----------
- System: Spodoptera eridania, 2nd instar larvae, southern armyworm (SAW)
- PROTOCOL: Southern armyworm (SAW) leaf dip test
- Assay type: in vivo
- Parameters: key: 0 = no effect; 1 = 10-25% kill; 2 = 26-35% kill; 3 = 36-45% kill; 4 = 46-55% kill; 5 = 56-65% kill; 6 = 66-75% kill; 7 = 76-85% kill; 8 = 86-99% kill; 9 = 100% kill
Field: SAW (300 ppm) rating. Provide a value for each of the compounds that follow.
One number for each entry.

> print(dat)
                                   compound  measurement
1  CCCOC(=O)CSC(C[N+](=O)[O-])c1ccc(OC(F)(F)F)cc1 (racemic)            0

Here's the next entry for you.
Prompt line: Request - read-out SAW (300 ppm) rating | tested on Spodoptera eridania, 2nd instar larvae, southern armyworm (SAW) | compound O=C(CSC(C[N+](=O)[O-])c1ccc2ccccc2c1)OCc1ccccc1 (racemic)
Response line: 0

Values compiled from patent US6358883B1.
